Tested on: Staphylococcus aureus
Details: Concentration 20 uM; ASSAY_TEST Inhibition of Bacterial Growth; detection method Absorption (OD600); MEDIA CAMHB; plate type 384well; NBS; CORNING #3640; time 18 hr
Entries with a potency or affinity are not part of this list.
Below, each entry is listed with its recorded Inhibition.

{"compound": "CC(C)Oc1ccc2c(=O)c(-c3ccccc3)coc2c1 [IPRIFLAVONE]", "Inhibition": "16.93%"}
{"compound": "Cc1cccc(C)c1NC(=O)C(C)N (stereo unspecified) [TOCAINIDE]", "Inhibition": "2.4%"}
{"compound": "CC1CCN(CCCC(=O)c2ccc(F)cc2)CC1.Cl", "Inhibition": "4.4%"}
{"compound": "CC(C)(C)NC(=O)[C@@H]1CN(Cc2cccnc2)CCN1C[C@@H](O)C[C@@H](Cc1ccccc1)C(=O)N[C@H]1c2ccccc2C[C@H]1O.O=S(=O)(O)O [INDINAVIR SULFATE]", "Inhibition": "6.61%"}
{"compound": "CC(C)c1ccc2oc3nc(N)c(C(=O)O)cc3c(=O)c2c1 [AMLEXANOX]", "Inhibition": "16.12%"}
{"compound": "Cc1cn([C@H]2C=C[C@@H](CO)O2)c(=O)[nH]c1=O [STAVUDINE]", "Inhibition": "17.22%"}

====

Test system: Staphylococcus aureus
Settings: Concentration 20 uM; ASSAY_TEST Inhibition of Bacterial Growth; detection method Absorption (OD600); MEDIA CAMHB; plate type 384well; NBS; CORNING #3640; time 18 hr
Measured potencies and affinities stand elsewhere.
Please use 1 for Inhibition under 10% and 0 for everything else, ties included.

{"compound": "C[C@]12C=CC(=O)C=C1CC[C@@H]1[C@@H]2C(=O)C[C@@]2(C)[C@H]1CC[C@]2(O)C(=O)CO", "label": 0}
{"compound": "CCOC(=O)[C@H](CCc1ccccc1)N[C@H]1CCc2ccccc2N(CC(=O)O)C1=O.Cl [BENAZEPRIL HYDROCHLORIDE]", "label": 1}
{"compound": "CN1CC(=O)N2[C@H](c3ccc4c(c3)OCO4)c3[nH]c4ccccc4c3C[C@@H]2C1=O", "label": 1}
{"compound": "C[C@@H]1C[C@H]2[C@@H]3C[C@H](F)C4=CC(=O)C(Cl)=C[C@]4(C)[C@@]3(F)[C@@H](O)C[C@]2(C)[C@@]1(O)C(=O)CO", "label": 1}
{"compound": "COCC1=C(C(=O)OC(C)OC(=O)OC(C)C)N2C(=O)[C@@H](NC(=O)/C(=N\\OC)c3csc(N)n3)[C@H]2SC1 (stereo not given in full)", "label": 1}
{"compound": "CC(Oc1c(Cl)cccc1Cl)C1=NCCN1.Cl (stereo not given) [LOFEXIDINE HYDROCHLORIDE]", "label": 1}
{"compound": "CC(Cc1ccccc1)(NC(=O)CN)c1ccccc1.Cl (stereo not given) [REMACEMIDE HYDROCHLORIDE]", "label": 0}
{"compound": "COc1cc(/C=C/c2ccc(O)cc2)cc(OC)c1", "label": 0}
{"compound": "Br.Br.O=C1CC2(CCCC2)CC(=O)N1CCNCC1COc2ccccc2O1 (stereo not given)", "label": 0}
{"compound": "O=c1c(O[C@@H]2O[C@H](CO)[C@@H](O)[C@H](O)[C@H]2O)c(-c2ccc(O)c(O)c2)oc2cc(O)cc(O)c12", "label": 0}
{"compound": "CC(N)C12CC3CC(CC(C3)C1)C2.Cl (stereo not given) [RIMANTADINE HYDROCHLORIDE]", "label": 1}
{"compound": "CC(=O)OCC(=O)[C@@]1(O)CC[C@H]2[C@@H]3CCC4=CC(=O)CC[C@]4(C)[C@H]3C(=O)C[C@@]21C [CORTISONE ACETATE]", "label": 0}
{"compound": "Cc1nc2ccccn2c(=O)c1CCN1CCC(C(=O)c2ccc(F)cc2)CC1", "label": 1}
{"compound": "CC1(C)S[C@@H]2[C@H](/N=C/N3CCCCCC3)C(=O)N2[C@H]1C(=O)O", "label": 0}

====

Below, each entry is listed with its recorded Inhibition.
Test system: Staphylococcus aureus
Settings: Concentration 20 uM; ASSAY_TEST Inhibition of Bacterial Growth; detection method Absorption (OD600); MEDIA CAMHB; plate type 384well; NBS; CORNING #3640; time 18 hr
Results with a measured potency or affinity are listed apart.
recorded-metric: Inhibition (%)

{"molecule": "CCOC(=O)O[C@]1(C(=O)OCCl)CC[C@H]2[C@@H]3CCC4=CC(=O)C=C[C@]4(C)[C@H]3[C@@H](O)C[C@@]21C [LOTEPREDNOL ETABONATE]", "recorded-measurement": -21.62}
{"molecule": "C=CCc1ccc(O)c(-c2ccc(O)c(CC=C)c2)c1 [HONOKIOL]", "recorded-measurement": 11.41}
{"molecule": "CCc1cccc2c3c([nH]c12)C(CC)(CC(=O)O)OCC3 (stereo not drawn) [ETODOLAC]", "recorded-measurement": 5.09}
{"molecule": "CC12CC3CC(C)(C1)CC(N)(C3)C2.Cl [MEMANTINE HYDROCHLORIDE]", "recorded-measurement": 17.71}
{"molecule": "Cl.Nc1nc2ccc(OC(F)(F)F)cc2s1", "recorded-measurement": 13.98}
{"molecule": "C[C@@H](O)[C@H]1C(=O)N2C(C(=O)O)=C(S[C@@H]3CN[C@H](C(=O)N(C)C)C3)[C@H](C)[C@H]12 [MEROPENEM]", "recorded-measurement": -14.17}
{"molecule": "COc1ccc(C2CNC(=O)C2)cc1OC1CCCC1 (stereo not drawn) [ROLIPRAM]", "recorded-measurement": 10.42}
{"molecule": "O=c1cnn([C@@H]2O[C@H](CO)[C@@H](O)[C@H]2O)c(=O)[nH]1 [6-AZAURIDINE]", "recorded-measurement": -22.3}
{"molecule": "CN1CCCC(n2nc(Cc3ccc(Cl)cc3)c3ccccc3c2=O)CC1.Cl (stereo not drawn) [AZELASTINE HYDROCHLORIDE]", "recorded-measurement": -20.95}
{"molecule": "Nc1ncnc2c1ncn2[C@@H]1O[C@H](CO)[C@@H](O)[C@@H]1O [VIDARABINE]", "recorded-measurement": 17.44}
{"molecule": "CCCCC[C@H](O)/C=C/[C@H]1[C@H](O)CC(=O)[C@@H]1CCCCCCC(=O)O [ALPROSTADIL]", "recorded-measurement": 3.1}
{"molecule": "CCOC(=O)c1ccc(OC(=O)CCCCCN=C(N)N)cc1.CS(=O)(=O)O", "recorded-measurement": 11.22}
{"molecule": "CCCCC1=NC2(CCCC2)C(=O)N1Cc1ccc(-c2ccccc2-c2nnn[nH]2)cc1 [IRBESARTAN]", "recorded-measurement": 6.34}
{"molecule": "NC(=O)N1c2ccccc2C=Cc2ccccc21 [CARBAMAZEPINE]", "recorded-measurement": 10.71}
{"molecule": "CCOC(=O)[C@H](CCc1ccccc1)N[C@@H](C)C(=O)N1Cc2ccccc2C[C@H]1C(=O)O.Cl [QUINAPRIL HYDROCHLORIDE]", "recorded-measurement": 16.74}
{"molecule": "CCC(=O)O[C@]1(C(=O)CCl)[C@@H](C)C[C@H]2[C@@H]3CCC4=CC(=O)C=C[C@]4(C)[C@@]3(F)[C@@H](O)C[C@@]21C [CLOBETASOL PROPIONATE]", "recorded-measurement": -12.08}
{"molecule": "O=C(O)c1cc(-c2ccc(F)cc2F)ccc1O [DIFLUNISAL]", "recorded-measurement": -11.25}
{"molecule": "CNCC[C@@H](Oc1ccccc1C)c1ccccc1.Cl [ATOMOXETINE HYDROCHLORIDE]", "recorded-measurement": -21.69}
{"molecule": "CC(C)[N+](C)(CCOC(=O)C1c2ccccc2Oc2ccccc21)C(C)C.[Br-] [PROPANTHELINE BROMIDE]", "recorded-measurement": 16.95}
{"molecule": "CN(C)CCOC(C)(c1ccccc1)c1ccccn1.O=C(O)CCC(=O)O (stereo not drawn) [DOXYLAMINE SUCCINATE]", "recorded-measurement": 2.51}
{"molecule": "Nc1ccn([C@@H]2O[C@H](CO)[C@@H](O)[C@@H]2O)c(=O)n1 [CYTARABINE]", "recorded-measurement": 17.83}
{"molecule": "Cc1ccc(-c2cc(C(F)(F)F)nn2-c2ccc(S(N)(=O)=O)cc2)cc1 [CELECOXIB]", "recorded-measurement": 5.39}
{"molecule": "CC(=O)O.CC(C)C[C@H](NC(=O)[C@@H](COC(C)(C)C)NC(=O)[C@H](Cc1ccc(O)cc1)NC(=O)[C@H](CO)NC(=O)[C@H](Cc1c[nH]c2ccccc12)NC(=O)[C@H](Cc1c[nH]cn1)NC(=O)[C@H]1CCC(=O)N1)C(=O)N[C@H](CCCNC(=N)N)C(=O)N1CCC[C@@H]1C(=O)NNC(N)=O", "recorded-measurement": 9.86}
{"molecule": "CN1CCN(C2=Nc3ccccc3Oc3ccc(Cl)cc32)CC1.O=C(O)CCC(=O)O [LOXAPINE SUCCINATE]", "recorded-measurement": 9.14}
{"molecule": "CC1=C(C(=O)O)N2C(=O)[C@@H](NC(=O)[C@H](N)c3ccccc3)[C@H]2SC1.O [CEPHALEXIN]", "recorded-measurement": -0.36}
{"molecule": "CC1(C)O[C@@H]2C[C@H]3[C@@H]4C[C@H](F)C5=CC(=O)C=C[C@]5(C)[C@H]4[C@@H](O)C[C@]3(C)[C@]2(C(=O)CO)O1 [FLUNISOLIDE]", "recorded-measurement": 6.94}
{"molecule": "CC(=O)CCCCn1cnc2c1c(=O)n(C)c(=O)n2C [LOMIFYLLINE]", "recorded-measurement": 12.49}
{"molecule": "CCCc1nc2c(C)cc(-c3nc4ccccc4n3C)cc2n1Cc1ccc(-c2ccccc2C(=O)O)cc1", "recorded-measurement": 33.03}
{"molecule": "CCCCc1nc(Cl)c(CO)n1Cc1ccc(-c2ccccc2-c2nnn[n-]2)cc1.[K+] [LOSARTAN POTASSIUM]", "recorded-measurement": -19.73}
{"molecule": "Cl.NC1CCN(c2cccc(Cl)n2)CC1", "recorded-measurement": 8.14}
{"molecule": "c1ccc2[nH]c(-c3cscn3)nc2c1 [THIABENDAZOLE]", "recorded-measurement": 9.35}
{"molecule": "Cc1ccsc1C(=CCCN1CCC[C@@H](C(=O)O)C1)c1sccc1C.Cl [TIAGABINE HYDROCHLORIDE]", "recorded-measurement": 12.29}
{"molecule": "CCCCN1CCCC1CNC(=O)c1cc(C#N)c2ccccc2c1OC (stereo not drawn) [NAFADOTRIDE]", "recorded-measurement": 6.62}
